The entries below are paired with their reported half-life.
experiment_summary: Plasma half-life following oral administration in Fisher rats
Format: ADME, organism-based
cond: rat

structure_as_smiles | half-life
C[C@H]1[C@@H](OC(=O)N[C@@H](CSc2ccccc2)[C@H](O)CN2C[C@H]3CCS[C@H]3C[C@H]2C(=O)NC(C)(C)C)CCS1(=O)=O | 1.55 h

Incoming: Give a short answer stating reported half-life for CC(C)[C@@H]1[C@H](OC(=O)N[C@@H](CSc2ccccc2)[C@H](O)CN2C[C@H]3CCS[C@H]3C[C@H]2C(=O)NC(C)(C)C)CCS1(=O)=O .
Outgoing: 1.4 h

====

experiment_summary: Bioavailability in fasted fisher rats
Type: ADME, organism-based
cond: rat, in vivo
measurement_name: bioavailability (%)
Output spec: scalar in %, unitless text.

Incoming: Give a short answer stating reported bioavailability for C[C@@H]1[C@H](OC(=O)N[C@@H](CSc2ccccc2)[C@H](O)CN2C[C@H]3CCS[C@H]3C[C@H]2C(=O)NC(C)(C)C)CCS1(=O)=O .
Outgoing: 6.3

====

system_tested: Human immunodeficiency virus type 1 protease (Human immunodeficiency virus 1, UniProt Q72874)
measurement_name: IC50 (nM)
Output spec: scalar in nM, unitless text.

Take a look at these entries with their results.
structure_as_smiles | measure_unit | IC50
C[C@@H]1[C@H](OC(=O)N[C@@H](Cc2ccccc2)[C@H](O)CN2C[C@H]3CCCC[C@H]3C[C@H]2C(=O)NC(C)(C)C)CCS1(=O)=O | nM | 10
CC(C)(C)NC(=O)[C@@H]1C[C@@H]2SCC[C@@H]2CN1C[C@@H](O)[C@H](CSc1ccccc1)NC(=O)O[C@H]1CCS(=O)(=O)C1 | nM | 1.7
C[C@@H]1OCC[C@@H]1OC(=O)N[C@@H](CSc1ccccc1)[C@H](O)CN1C[C@H]2CCS[C@H]2C[C@H]1C(=O)NC(C)(C)C | nM | 0.28

Incoming: Give a short answer stating reported IC50 for C[C@@H]1[C@H](OC(=O)N[C@@H](CSc2ccccc2)[C@H](O)CN2C[C@H]3CCS[C@H]3C[C@H]2C(=O)NC(C)(C)C)CCS1(=O)=O .
Outgoing: 0.75

Incoming: Give a short answer stating reported IC50 for C[C@H]1OCC[C@H]1OC(=O)N[C@@H](CSc1ccccc1)[C@H](O)CN1C[C@H]2CCS[C@H]2C[C@H]1C(=O)NC(C)(C)C .
Outgoing: 3

Incoming: Give a short answer stating reported IC50 for C[C@H]1[C@H](OC(=O)N[C@@H](CSc2ccccc2)[C@H](O)CN2C[C@H]3CCS[C@H]3C[C@H]2C(=O)NC(C)(C)C)CCS1(=O)=O .
Outgoing: 1.4

Incoming: Give a short answer stating reported IC50 for CC(C)[C@@H]1[C@H](OC(=O)N[C@@H](Cc2ccccc2)[C@H](O)CN2C[C@H]3CCCC[C@H]3C[C@H]2C(=O)NC(C)(C)C)CCS1(=O)=O .
Outgoing: 4.3

Incoming: Give a short answer stating reported IC50 for CC(C)[C@@H]1[C@H](OC(=O)N[C@@H](Cc2ccccc2)[C@H](O)CN2C[C@H]3CCS[C@H]3C[C@H]2C(=O)NC(C)(C)C)CCS1(=O)=O .
Outgoing: 1.3

Incoming: Give a short answer stating reported IC50 for CC(C)[C@H]1SCC[C@H]1OC(=O)N[C@@H](Cc1ccccc1)[C@H](O)CN1C[C@H]2CCS[C@H]2C[C@H]1C(=O)NC(C)(C)C .
Outgoing: 0.26

Incoming: Give a short answer stating reported IC50 for C[C@@H]1[C@@H](OC(=O)N[C@@H](CSc2ccccc2)[C@H](O)CN2C[C@H]3CCS[C@H]3C[C@H]2C(=O)NC(C)(C)C)CCS1(=O)=O .
Outgoing: 5.2
